Target: Cytosolic phospholipase A2 (Homo sapiens)
Sequence (whole entry): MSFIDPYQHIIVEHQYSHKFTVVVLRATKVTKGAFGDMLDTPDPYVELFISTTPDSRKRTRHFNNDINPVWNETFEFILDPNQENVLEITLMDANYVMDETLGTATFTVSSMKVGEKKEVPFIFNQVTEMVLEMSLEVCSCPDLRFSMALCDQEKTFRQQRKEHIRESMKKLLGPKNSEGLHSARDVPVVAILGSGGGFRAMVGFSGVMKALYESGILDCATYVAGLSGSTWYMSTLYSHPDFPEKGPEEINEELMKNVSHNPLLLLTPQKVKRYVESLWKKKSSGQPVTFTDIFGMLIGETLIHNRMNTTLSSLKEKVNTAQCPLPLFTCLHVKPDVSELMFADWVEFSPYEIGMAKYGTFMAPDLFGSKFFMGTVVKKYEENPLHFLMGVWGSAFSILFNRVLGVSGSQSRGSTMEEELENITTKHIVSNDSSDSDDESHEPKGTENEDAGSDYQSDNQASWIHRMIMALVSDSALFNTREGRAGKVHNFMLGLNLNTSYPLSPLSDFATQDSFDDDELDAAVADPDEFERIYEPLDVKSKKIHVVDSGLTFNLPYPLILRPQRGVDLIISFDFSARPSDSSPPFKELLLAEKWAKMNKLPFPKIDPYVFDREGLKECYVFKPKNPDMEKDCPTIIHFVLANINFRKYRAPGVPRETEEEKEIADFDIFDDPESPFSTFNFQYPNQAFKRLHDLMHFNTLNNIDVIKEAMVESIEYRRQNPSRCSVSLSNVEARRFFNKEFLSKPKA
Experiment: Inhibition of human group IVA cPLA2 at 0.091 mol fraction using arachidonyl-1-14C PAPC by mixed micelles modified Dole assay
measurement kind: inhibition (%)

COc1ccc(CCCCC(=O)c2noc(C(C)(C)C)n2)cc1	52
COc1ccc(CCSCC(=O)C(F)(F)C(F)(F)F)cc1	61
O=C(CSCCc1ccc2ccccc2c1)C(F)(F)F	88
COc1ccc(CCSCC(=O)C(F)(F)F)cc1	60
COc1ccc(CCSCC(=O)c2noc(C(C)(C)C)n2)cc1	70

---

target: Phospholipase A2 group V (Homo sapiens) (UniProt P39877); assay: Inhibition of human group V sPLA2 at 0.091 mol fraction using arachidonyl-1-14C PAPC by mixed micelles modified Dole assay
Sequence (P39877 whole entry): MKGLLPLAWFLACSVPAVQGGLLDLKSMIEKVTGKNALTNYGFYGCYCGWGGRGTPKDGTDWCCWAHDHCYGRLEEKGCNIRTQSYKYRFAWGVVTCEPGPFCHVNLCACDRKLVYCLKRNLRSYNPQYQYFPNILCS
measurement kind: inhibition (%)

COc1ccc(CCSCC(=O)C(F)(F)C(F)(F)F)cc1	28
O=C(CSCCc1ccc2ccccc2c1)C(F)(F)F	32
COc1ccc(CCCCC(=O)c2noc(C(C)(C)C)n2)cc1	35
COc1ccc(CCSCC(=O)c2noc(C(C)(C)C)n2)cc1	38

The origin of these recorded values is ChEMBL document CHEMBL3817820.
